Each recorded value in this set is attributed to PubChem BioAssay AID588790.

# target of assay: Beta-2 adrenergic receptor (Homo sapiens) (UniProt P07550)
# Sequence (P07550 whole entry, looked up): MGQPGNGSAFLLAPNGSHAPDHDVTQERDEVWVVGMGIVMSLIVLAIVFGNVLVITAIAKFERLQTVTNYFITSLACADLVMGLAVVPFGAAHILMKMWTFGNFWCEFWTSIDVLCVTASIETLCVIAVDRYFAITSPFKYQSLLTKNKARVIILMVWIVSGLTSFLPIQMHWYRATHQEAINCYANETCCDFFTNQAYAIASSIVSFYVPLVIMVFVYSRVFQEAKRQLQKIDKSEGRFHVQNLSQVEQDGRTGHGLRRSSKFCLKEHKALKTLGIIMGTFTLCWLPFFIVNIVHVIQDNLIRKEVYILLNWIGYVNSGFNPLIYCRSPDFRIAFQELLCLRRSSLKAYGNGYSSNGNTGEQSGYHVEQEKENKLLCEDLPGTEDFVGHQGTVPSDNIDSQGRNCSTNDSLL
# experiment summary: qHTS assay of beta-arrestin-biased ligands of beta2-adrenergic receptor: Hit Validation with GloSensor
# measurement setup: W9-Glo22F cells, GloSensor cAMP luminescence, beta2AR agonism; series mostly up to 46.1 µM
# Source text: The concept of biased agonism is an emerging concept of molecular pharmacology which proposes that seven transmembrane receptors (7TMRs) or G protein-coupled receptors (GPCRs), exist in multiple signaling conformations and complexes and that ligands (either agonists or antagonists) can induce signaling biased responses for distinct signal transduction cascades. […]
In all, about 1,200 compounds went through this assay and about 85 (7%) were called active. The call rests on the fitted dose curve. This is one part of a sample in which actives are shown more often than they occur.
Classes used: 1 for active, -1 for inactive

INSERT INTO measurements (compound, classification) VALUES
  ('COC(=O)C1=C(c2ccc(OC)c(OC)c2)C[C@@H]2CC[C@H]1N2C(=O)NCc1cccc2ccccc12', -1),
  ('COC(=O)C1=C(c2ccc(OCc3ccccc3)cc2)C[C@@H]2CC[C@H]1N2C(=O)NCc1cccc(C(F)(F)F)c1', -1),
  ('COC(=O)C1=C(c2ccc(-c3ccccc3)c(F)c2)C[C@@H]2CC[C@H]1N2C(=O)NCCOc1ccc(OC)cc1', -1),
  ('OC12ONC(c3ccccn3)C1N1CCC2CC1 (stereo not drawn)', -1),
  ('Clc1ccc2c(c1)C(c1ccccc1Cl)=NCc1nnc(N3CCN(CCOc4ccccc4)CC3)n1-2', -1),
  ('COC(=O)C1=C(c2ccc(OCc3ccccc3)cc2)C[C@@H]2CC[C@H]1N2C(=O)NCc1ccc(OC)c(OC)c1', 1),
  ('COC(=O)C1=C(c2ccc(OCc3ccccc3)cc2)C[C@@H]2CC[C@H]1N2C(=O)NCc1cccc(OC)c1', -1),
  ('COc1cccc(C(=O)C2CCCN(Cc3cccc(C)n3)C2)c1 (stereo not drawn)', -1);
